- system.under.test: Histone-lysine N-methyltransferase KMT5C (Homo sapiens)
- experiment.description: Inhibition of SUV420H2 (unknown origin) using biotin-labeled histone substrate assessed as residual activity at 50 uM in presence of [3H-Me]SAM by scintillation proximity assay relative to control

{"compound": "CN1CCCC12CCCN(C(=O)c1cccc(Br)c1)C2 (centres undefined)", "Activity (%)": 83}
{"compound": "O=C(c1cccc(Br)c1)N1CCC2(CCNCC2)CC1", "Activity (%)": 97}
{"compound": "O=C(c1cccc(Br)c1)N1C[C@@H]2CCN[C@@H]2C1", "Activity (%)": 94}
{"compound": "C[N+]1(C)CCCCC12CCN(C(=O)c1cccc(Br)c1)CC2", "Activity (%)": 98}
{"compound": "O=C(c1cccc(Br)c1)N1C[C@@H]2CC3CCCCN3[C@@H]2C1 (some centres undefined)", "Activity (%)": 100}
{"compound": "O=C(c1cccc(Br)c1)N1C[C@H]2CCCN[C@H]2C1", "Activity (%)": 98}
{"compound": "O=C(c1cccc(Br)c1)N1C[C@@H]2CC3CCCN3[C@@H]2C1 (some centres undefined)", "Activity (%)": 101}
{"compound": "O=C(c1cccc(Br)c1)N1CCC[C@@H]2CNC[C@@H]21", "Activity (%)": 103}
{"compound": "O=C(c1cccc(Br)c1)N1CCCC2(CCCCN2)C1 (centres undefined)", "Activity (%)": 96}
{"compound": "CN1C[C@H]2CCCN(C(=O)c3cccc(Br)c3)[C@H]2C1", "Activity (%)": 100}
{"compound": "O=C(c1cccc(Br)c1)N1CC[C@@H]2[C@@H](CC3CCCCN32)C1 (some centres undefined)", "Activity (%)": 89}
{"compound": "CN1CC[C@H]2CN(C(=O)c3cccc(Br)c3)C[C@H]21", "Activity (%)": 100}
{"compound": "CN1CCCCC12CCN(C(=O)c1cccc(Br)c1)CC2", "Activity (%)": 94}
{"compound": "O=C(c1cccc(Br)c1)N1CC[C@H]2NCC[C@H]2C1", "Activity (%)": 99}
{"compound": "CN1CCCC12CCN(C(=O)c1cccc(Br)c1)CC2", "Activity (%)": 103}
{"compound": "CN1CCC2(CC1)CCN(C(=O)c1cccc(Br)c1)CC2", "Activity (%)": 105}
{"compound": "CN1CCC2(CCCN2C(=O)c2cccc(Br)c2)CC1", "Activity (%)": 99}
{"compound": "O=C(c1cccc(Br)c1)N1CCCC2(CCNCC2)C1", "Activity (%)": 100}
{"compound": "O=C(c1cccc(Br)c1)N1CCC2CNCC2C1 (centres undefined)", "Activity (%)": 104}
{"compound": "CN1CCC2(CCCN(C(=O)c3cccc(Br)c3)C2)C1 (centres undefined)", "Activity (%)": 96}
{"compound": "CN1CCCC2(CCCN2C(=O)c2cccc(Br)c2)C1 (centres undefined)", "Activity (%)": 109}
{"compound": "CN1CCC[C@@H]2CN(C(=O)c3cccc(Br)c3)C[C@@H]21", "Activity (%)": 100}
{"compound": "CN1CCCC2(CCCN(C(=O)c3cccc(Br)c3)C2)C1 (centres undefined)", "Activity (%)": 100}
{"compound": "CN1CCCCC12CCCN(C(=O)c1cccc(Br)c1)C2 (centres undefined)", "Activity (%)": 99}

Just for reference, ChEMBL document CHEMBL4477270 is where these values come from.
